Reported hepatocyte CLint at 1 μM is given for each of the following molecules.
- Assay details: Hepatocytes stability assay (human hepatocytes)
- Assay type: in vitro ADME
- Condition description: both sexes, human, cryopreserved hepatocytes, cryopreserved human hepatocytes (pool of 50 mixed gender); 1 μM test compound; 1×10^6 cell/mL; 37 degrees C; read-out: CLint (μL/min/million cells)
Reported metric: hepatocyte CLint at 1 μM (µL/min/1e6 cells)

# Molecule, Unit of measure, Result qualifier, Observed value
records = [
    ("CC[C@H](C)S(=O)(=O)N[C@H]1CCCN2C(=O)COc3ccccc3C3CCC(CC3)OC[C@@H]12 (stereo in doubt)", "µL/min/1e6 cells", "=", 36),
    ("Cc1c(Cl)ccc2c1[C@H]1CC[C@H](CC1)OCC1[C@@H](NS(=O)(=O)C(C)C)CCCN1C(=O)CO2 (stereo in doubt)", "µL/min/1e6 cells", "=", 3.8),
    ("Cc1ncnc2c1[C@H]1CC[C@H](CC1)OCC1[C@@H](NS(C)(=O)=O)CCCN1C(=O)CO2 (stereo in doubt)", "µL/min/1e6 cells", "<", 1.9),
    ("Cc1ccnc2c1[C@H]1CC[C@H](CC1)OCC1[C@@H](NS(=O)(=O)C(F)(F)F)CCN1C(=O)CO2 (stereo in doubt)", "µL/min/1e6 cells", "<", 1.9),
    ("Cc1cccc2c1[C@H]1CC[C@H](CC1)OCC1[C@@H](NS(=O)(=O)C(C)C)CCN1C(=O)CO2 (stereo in doubt)", "µL/min/1e6 cells", "=", 46),
    ("CC(C)S(=O)(=O)N[C@H]1CCCN2C(=O)COc3ccccc3C3CCC(CC3)OC[C@@H]12 (stereo in doubt)", "µL/min/1e6 cells", "=", 21),
]

====

Reported pEC50 is given for each of the following compounds.
- System tested: human orexin-2 receptor (OX2R) (Homo sapiens)
- Sequence (O43614 whole entry): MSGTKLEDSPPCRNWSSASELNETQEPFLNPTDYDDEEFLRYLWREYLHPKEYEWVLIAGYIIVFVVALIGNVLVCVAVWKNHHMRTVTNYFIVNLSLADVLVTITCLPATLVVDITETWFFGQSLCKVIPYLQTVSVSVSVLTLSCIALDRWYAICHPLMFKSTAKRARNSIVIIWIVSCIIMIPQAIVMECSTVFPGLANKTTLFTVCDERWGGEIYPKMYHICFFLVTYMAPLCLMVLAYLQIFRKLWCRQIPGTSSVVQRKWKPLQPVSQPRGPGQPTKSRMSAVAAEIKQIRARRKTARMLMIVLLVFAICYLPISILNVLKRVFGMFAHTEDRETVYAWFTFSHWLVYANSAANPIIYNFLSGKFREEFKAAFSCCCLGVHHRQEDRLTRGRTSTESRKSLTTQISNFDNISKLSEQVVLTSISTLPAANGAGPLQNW
- Assay details: Human OX2R IP1 assay
- Condition description: T-Rex CHO cells stably overexpressing human OX2R; IP1 accumulation; 1 hr at 37 degrees C; mean EC50
pEC50: −log10 of the molar value.

# Compound, System tested, pEC50
records = [
    ("Cc1ncnc2c1[C@H]1CC[C@H](CC1)OC[C@H]1[C@@H](NS(C)(=O)=O)CCN1C(=O)CO2 (stereo in doubt)", "human orexin-2 receptor (OX2R) (Homo sapiens)", "6.00 to 8.00"),
    ("Cc1c(Cl)ccc2c1[C@H]1CC[C@H](CC1)OC[C@H]1[C@@H](NS(=O)(=O)C(C)C)CCCN1C(=O)CO2 (stereo in doubt)", "human orexin-2 receptor (OX2R) (Homo sapiens)", "> 8.00"),
    ("O=S(=O)(CC1CCC1)N[C@H]1CCCN2CCOc3ccccc3[C@H]3CC[C@H](CC3)OC[C@@H]12 (stereo in doubt)", "human orexin-2 receptor (OX2R) (Homo sapiens)", "< 6.00"),
    ("CC(C)S(=O)(=O)N[C@H]1CCCN2C(=O)COc3ncccc3[C@H]3CC[C@H](CC3)OC[C@@H]12 (stereo in doubt)", "human orexin-2 receptor (OX2R) (Homo sapiens)", "> 8.00"),
    ("Cc1cccc2c1[C@H]1CC[C@H](CC1)OC[C@H]1[C@@H](NS(=O)(=O)C(C)C)CCCN1C(=O)CO2 (stereo in doubt)", "human orexin-2 receptor (OX2R) (Homo sapiens)", "> 8.00"),
    ("C[C@H](C(F)(F)F)S(=O)(=O)N[C@H]1CCCN2C(=O)COc3ccccc3C3CCC(CC3)OC[C@@H]12 (stereo in doubt)", "human orexin-2 receptor (OX2R) (Homo sapiens)", "> 8.00"),
    ("Cc1cccc2c1OCC(=O)N1CCC[C@H](NS(C)(=O)=O)[C@@H]1CO[C@H]1CC[C@@H]2CC1 (stereo in doubt)", "human orexin-2 receptor (OX2R) (Homo sapiens)", "> 8.00"),
    ("O=C1COc2ccccc2[C@H]2CC[C@H](CC2)OC[C@H]2[C@@H](NS(=O)(=O)CF)CCCN12 (stereo in doubt)", "human orexin-2 receptor (OX2R) (Homo sapiens)", "> 8.00"),
    ("Cc1ccnc2c1[C@H]1CC[C@H](CC1)OC[C@H]1[C@@H](NS(=O)(=O)C(C)C)CCCN1C(=O)CO2 (stereo in doubt)", "human orexin-2 receptor (OX2R) (Homo sapiens)", "> 8.00"),
    ("Cc1ccc2c(c1C)[C@H]1CC[C@H](CC1)OC[C@H]1[C@@H](NS(=O)(=O)C(C)C)CCCN1C(=O)CO2 (stereo in doubt)", "human orexin-2 receptor (OX2R) (Homo sapiens)", "> 8.00"),
    ("Cc1ccc2c(c1)[C@H]1CC[C@H](CC1)OC[C@H]1[C@@H](NS(C)(=O)=O)CCCN1CCO2 (stereo in doubt)", "human orexin-2 receptor (OX2R) (Homo sapiens)", "6.00 to 8.00"),
    ("O=C1COc2ccccc2[C@H]2CC[C@H](CC2)OC[C@H]2[C@@H](NS(=O)(=O)C3CCC3)CCCN12 (stereo in doubt)", "human orexin-2 receptor (OX2R) (Homo sapiens)", "> 8.00"),
]

====

- Test system: MDR1
- Assay details: MDCK-MDR1 permeability assay
- Assay type: in vitro ADME
- Condition description: dog, MDCK-MDR1, MDCK-MDR1 cells; Papp B→A divided by Papp A→B; 3 μM; 2 hours; read-out: Efflux ratio (ER)
- Procedure: The bidirectional permeability (Apical to Basal and Basal to Apical directions) of test compounds in MDCK-MIDR1 cells were evaluated using MDCK-MIDR1 cells seeded in Solvo PreadyPort™ MDCK 96-well plate. Once the plate was received from ReadyCell (Barcelona, Spain), it was treated as per PreadyPort™ user's manual. […] The efflux ratio (ER) was measured by dividing the Papp (basolateral to apical direction) by Papp (apical to basolateral direction). […]
Hi! Could you tag entries with efflux ratio at 2 h, 3 μM below 40 as fulfilled, and those at or above as not fulfilled? Much appreciated.

# Compound, Label value
measured = [
    ("Cc1ncnc2c1[C@H]1CC[C@H](CC1)OCC1[C@@H](NS(=O)(=O)C(C)C)CCN1C(=O)CO2 (stereo in doubt)", "fulfilled"),
    ("CC[C@H](C)S(=O)(=O)N[C@H]1CCCN2C(=O)COc3ccccc3C3CCC(CC3)OC[C@@H]12 (stereo in doubt)", "not fulfilled"),
    ("CS(=O)(=O)N[C@H]1CCCN2C(=O)[C@@H](CO)Oc3ccccc3[C@H]3CC[C@H](CC3)OCC12 (stereo in doubt)", "not fulfilled"),
    ("Cc1ccc2c(c1C)[C@H]1CC[C@H](CC1)OCC1[C@@H](NS(C)(=O)=O)CCCN1C(=O)CO2 (stereo in doubt)", "not fulfilled"),
    ("Cc1ccc2c(c1)OCCN1CCC[C@H](NS(C)(=O)=O)C1CO[C@H]1CC[C@@H]2CC1 (stereo in doubt)", "fulfilled"),
]

====

- Tested on: MDR1
- Assay details: MDCK-MDR1 permeability assay
- Type: in vitro ADME
- Condition description: dog, MDCK-MDR1, MDCK-MDR1 cells; Papp B→A divided by Papp A→B; 3 μM; 2 hours; read-out: Efflux ratio (ER)
Reported efflux ratio at 2 h, 3 μM is given for each of the following compounds.

# Compound, efflux ratio at 2 h, 3 μM
records = [
    ("Cc1ccnc2c1[C@H]1CC[C@H](CC1)OCC1[C@@H](NS(=O)(=O)C3COC3)CCCN1C(=O)CO2 (stereo in doubt) [Compound 88]", 25),
    ("Cc1cnc2c(c1)[C@H]1CC[C@H](CC1)OCC1[C@@H](NS(=O)(=O)C(C)C)CCCN1C(=O)CO2 (stereo in doubt) [Compound 34]", 67),
    ("O=C1COc2ccccc2C2CCC(CC2)OC[C@H]2[C@@H](NS(=O)(=O)C3CC3)CCCN12 (stereo in doubt) [Compound 1]", 6.7),
    ("Cc1c(Cl)ccc2c1[C@H]1CC[C@H](CC1)OCC1[C@@H](NS(=O)(=O)C3CC3)CCCN1C(=O)CO2 (stereo in doubt) [Compound 75]", 65),
    ("Cc1cccc2c1[C@H]1CC[C@H](CC1)OC[C@H]1[C@@H](NS(C)(=O)=O)CCN1C(=O)CO2 [Compound 20]", 6.4),
    ("Cc1ncnc2c1[C@H]1CC[C@H](CC1)OCC1[C@@H](NS(=O)(=O)C3CC3)CCCN1C(=O)CO2 (stereo in doubt) [Compound 68]", 72),
    ("C[C@@H]1C[C@H](NS(C)(=O)=O)[C@@H]2CO[C@H]3CC[C@H](CC3)c3ccccc3OCC(=O)N12 [Compound 103]", 28),
    ("COC(=O)N1CCC[C@H](NS(C)(=O)=O)[C@@H]1CO[C@H]1CC[C@@H](c2ccccc2)CC1 [Reference Compound A, reference compound]", 5.9),
    ("CC(C)S(=O)(=O)N[C@H]1CCCN2C(=O)COc3ccccc3C3CCC(CC3)OC[C@@H]12 (stereo in doubt) [Compound 3]", 10),
    ("O=S(=O)(CC1CCC1)N[C@H]1CCCN2CCOc3ccccc3[C@H]3CC[C@H](CC3)OCC12 (stereo in doubt) [Compound 55]", 31),
    ("Cc1ccc2c(c1)C1CCC(CC1)OC[C@H]1[C@@H](NS(C)(=O)=O)CCCN1C(=O)CO2 (stereo in doubt) [Compound 17]", 40),
    ("Cc1ccnc2c1[C@H]1CC[C@H](CC1)OCC1[C@@H](NS(=O)(=O)C3CC3)CCN1C(=O)CO2 (stereo in doubt) [Compound 92]", 18),
    ("Cc1ncnc2c1[C@H]1CC[C@H](CC1)OCC1[C@@H](NS(=O)(=O)C3CC3)CCN1C(=O)CO2 (stereo in doubt) [Compound 83]", 46),
]

The reported measurements were obtained from patent US12006330B2.
